I'd appreciate it if you could supply protein stability index values for the items below.
B1: NP_009172.2 (parent)
chain: LPALFTDLYSQEITAEEAREALP

- Variants of: B1
- experimentSummary: protein stability index of a GFP-peptide fusion (GPS, HEK-293T) (PSI 1-6); higher = more stable;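 further: lentivirally expressed fusion library, cells FACS-sorted into six equal-sized GFP/DsRed ratio bins, PSI computed from sequencing read fractions per bin weighted by bin number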
- measurementParameters: c terminus: native
Give only the figure.

// protein stability index lookup, variant = `P2A` , result: 2.69

// protein stability index lookup, variant = `L1R` , result: 2.22

// protein stability index lookup, variant = `A3N` , result: 2.96

// protein stability index lookup, variant = `S10K` , result: 2.48

// protein stability index lookup, variant = `A15M` , result: 2.51

// protein stability index lookup, variant = `Y9R` , result: 5.15

// protein stability index lookup, variant = `E20N` , result: 2.2

// protein stability index lookup, variant = `T14K` , result: 2.34

// protein stability index lookup, variant = `L22G` , result: 2.88

// protein stability index lookup, variant = `L22A` , result: 3.54

// protein stability index lookup, variant = `A15W` , result: 2.68

The reported measurements were obtained from the supplement of paper PMC10567573.
